B1: VH:VL chains; a variant is named by its letters at X, in order (parent)
chain 1: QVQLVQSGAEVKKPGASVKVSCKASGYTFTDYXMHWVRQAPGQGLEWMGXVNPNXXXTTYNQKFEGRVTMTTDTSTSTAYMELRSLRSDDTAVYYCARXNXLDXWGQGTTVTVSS
chain 2: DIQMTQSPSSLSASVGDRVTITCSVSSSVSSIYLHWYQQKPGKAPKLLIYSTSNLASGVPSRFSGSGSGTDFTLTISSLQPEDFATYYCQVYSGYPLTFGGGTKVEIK

# Variants of: B1
# assay_method_text: yeast display scFab, FACS + sequencing
recorded_endpoint: non-specific binding call

SAKRDSAS; no binding
DTGGDDWF; no binding
YRRGGAGY; binds
DARGGDGS; no binding
FRGKGAVS; binds
DARGAYLV; no binding

Entry DRRGDDGA ; non-specific binding call = no binding

Reported non-specific binding call for YAEKDAGD was no binding

Form: variant = YRRRGAVD ; non-specific binding call = binds

non-specific binding call reading for VKGRADLV : no binding

Consider VRGGDDGV . Its measured non-specific binding call is no binding

Consider VRGRGVSY . Its measured non-specific binding call is binds

The reported value for DTKAADWY in terms of non-specific binding call is no binding

Given item DEGGGDGA , the value recorded as its non-specific binding call is no binding
